target: Jak2 (UniProt O60674); assay: phosphorylation enrichment, bacterial display (enrichment ratio); higher = better substrate or ligand; peptides without Tyr show the background;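 note: 11-residue human phosphosite peptides and single-mutation variants displayed on the E. coli surface, counted by deep sequencing, each peptide's frequency after selection divided by its frequency in the unselected input library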;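 note: frequency after pTyr selection over input frequency; kinase dosed for 20-30% of maximal phosphorylation in three min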
Sequence (O60674 whole entry, looked up): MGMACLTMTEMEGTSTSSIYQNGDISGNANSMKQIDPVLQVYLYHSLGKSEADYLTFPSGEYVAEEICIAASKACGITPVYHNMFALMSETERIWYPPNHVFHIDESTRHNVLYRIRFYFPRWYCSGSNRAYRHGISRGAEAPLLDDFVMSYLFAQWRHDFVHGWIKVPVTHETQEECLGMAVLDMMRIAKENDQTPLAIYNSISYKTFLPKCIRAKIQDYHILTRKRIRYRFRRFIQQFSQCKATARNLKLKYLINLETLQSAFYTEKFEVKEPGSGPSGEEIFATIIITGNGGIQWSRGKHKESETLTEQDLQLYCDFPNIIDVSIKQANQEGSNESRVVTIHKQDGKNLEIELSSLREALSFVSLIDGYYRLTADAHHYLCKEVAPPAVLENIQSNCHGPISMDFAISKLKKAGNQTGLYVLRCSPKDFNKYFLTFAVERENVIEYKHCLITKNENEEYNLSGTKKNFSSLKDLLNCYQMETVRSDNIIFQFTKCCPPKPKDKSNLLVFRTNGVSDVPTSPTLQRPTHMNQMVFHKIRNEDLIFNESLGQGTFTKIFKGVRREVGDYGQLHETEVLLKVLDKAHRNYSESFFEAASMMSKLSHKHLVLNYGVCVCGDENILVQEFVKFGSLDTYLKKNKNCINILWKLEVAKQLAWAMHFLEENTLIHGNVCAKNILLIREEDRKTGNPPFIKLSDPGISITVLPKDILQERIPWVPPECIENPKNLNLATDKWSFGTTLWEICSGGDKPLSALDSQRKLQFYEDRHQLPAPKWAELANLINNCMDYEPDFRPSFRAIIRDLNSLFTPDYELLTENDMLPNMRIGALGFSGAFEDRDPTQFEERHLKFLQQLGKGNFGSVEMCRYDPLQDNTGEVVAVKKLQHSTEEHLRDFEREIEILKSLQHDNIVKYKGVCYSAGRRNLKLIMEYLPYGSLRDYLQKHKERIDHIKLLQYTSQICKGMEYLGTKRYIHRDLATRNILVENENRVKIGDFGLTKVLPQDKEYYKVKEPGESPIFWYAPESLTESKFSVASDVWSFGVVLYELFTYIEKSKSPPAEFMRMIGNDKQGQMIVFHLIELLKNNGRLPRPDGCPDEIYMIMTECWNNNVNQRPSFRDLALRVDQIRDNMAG
PROPERTY: phosphorylation enrichment

[
  {
    "BIOSEQUENCE": "PSALGYSPSLH [LLGL2_Y40_R45H]",
    "ENDPOINT_RESULT": 0.71
  },
  {
    "BIOSEQUENCE": "TTKGSYSLYVR [HCK_Y180_S183Y]",
    "ENDPOINT_RESULT": 1.02
  },
  {
    "BIOSEQUENCE": "HLDRSYSYSYS [PEAR1_Y890_R885H]",
    "ENDPOINT_RESULT": 1.02
  },
  {
    "BIOSEQUENCE": "IIEDPYYGNDF [ACP1_Y132_S137F]",
    "ENDPOINT_RESULT": 1.48
  },
  {
    "BIOSEQUENCE": "IVKAYYVRARA [AIPL1_Y268]",
    "ENDPOINT_RESULT": 0.743
  },
  {
    "BIOSEQUENCE": "DLDPNYVVSSR [CKM_Y125_L127V]",
    "ENDPOINT_RESULT": 0.843
  },
  {
    "BIOSEQUENCE": "SYCYRYRCAAW [SUMF1_Y344_R349W]",
    "ENDPOINT_RESULT": 0.508
  },
  {
    "BIOSEQUENCE": "KALKQYRAGPS [DDX27_Y763]",
    "ENDPOINT_RESULT": 0.545
  },
  {
    "BIOSEQUENCE": "PSQRRNVYYYS [PTEN_Y174_Y174N]",
    "ENDPOINT_RESULT": 0.916
  },
  {
    "BIOSEQUENCE": "KSVVTYSPTTG [ITGB3BP_Y32_I30V]",
    "ENDPOINT_RESULT": 0.489
  },
  {
    "BIOSEQUENCE": "KKCTRYIDCDR [ASPA_Y64_L69R]",
    "ENDPOINT_RESULT": 0.691
  },
  {
    "BIOSEQUENCE": "GGRKGYGDFSR [RECQL5_Y478]",
    "ENDPOINT_RESULT": 0.422
  },
  {
    "BIOSEQUENCE": "YLELNYKEDEY [MME_Y502]",
    "ENDPOINT_RESULT": 1.3
  },
  {
    "BIOSEQUENCE": "LLREWYLPDPF [SIX3_Y225_Q227P_YF]",
    "ENDPOINT_RESULT": 1.4
  },
  {
    "BIOSEQUENCE": "RVQKRYILDNV [RCN1_Y115_F117L]",
    "ENDPOINT_RESULT": 0.487
  },
  {
    "BIOSEQUENCE": "ENRKYYKDLKE [PURA_Y156_M157K]",
    "ENDPOINT_RESULT": 0.772
  },
  {
    "BIOSEQUENCE": "RSDEDYLYREE [POR_Y573]",
    "ENDPOINT_RESULT": 1.48
  },
  {
    "BIOSEQUENCE": "SISLRYEGRVF [ABL1_Y167_YF]",
    "ENDPOINT_RESULT": 0.918
  },
  {
    "BIOSEQUENCE": "SLRAHYDTPRS [DOK7_Y405]",
    "ENDPOINT_RESULT": 0.402
  },
  {
    "BIOSEQUENCE": "ISKQEYDEAGP [ACTC1_Y364]",
    "ENDPOINT_RESULT": 1.31
  },
  {
    "BIOSEQUENCE": "CTTNHYNYMCN [TP53_Y234_I232N]",
    "ENDPOINT_RESULT": 0.593
  },
  {
    "BIOSEQUENCE": "TDECEYDELIV [TGM1_Y136_Y134C]",
    "ENDPOINT_RESULT": 0.788
  },
  {
    "BIOSEQUENCE": "TVHCDYLNIPH [TAF1L_Y1385]",
    "ENDPOINT_RESULT": 0.941
  },
  {
    "BIOSEQUENCE": "YGSGNYNVFGN [HNRNPA2B1_Y300_D302V]",
    "ENDPOINT_RESULT": 0.683
  },
  {
    "BIOSEQUENCE": "VVHGSYDEIEG [SEC24A_Y263_S261G]",
    "ENDPOINT_RESULT": 0.887
  },
  {
    "BIOSEQUENCE": "TNFPLYLRSLE [MTM1_Y71_R69P_YF]",
    "ENDPOINT_RESULT": 1.13
  },
  {
    "BIOSEQUENCE": "CTTIHYNFLCN [TP53_Y234_M237L_YF]",
    "ENDPOINT_RESULT": 0.623
  },
  {
    "BIOSEQUENCE": "SIKDKYVTAFF [KCNH2_Y611_L615F_YF]",
    "ENDPOINT_RESULT": 0.526
  },
  {
    "BIOSEQUENCE": "FDNPVCQKTTE [LDLR_Y828_Y828C]",
    "ENDPOINT_RESULT": 0.875
  },
  {
    "BIOSEQUENCE": "RRIHSYRGQLW [VHL_Y112_H115Q]",
    "ENDPOINT_RESULT": 0.925
  },
  {
    "BIOSEQUENCE": "QMVGMYASFFM [AVPR2_Y124_S127F_YF]",
    "ENDPOINT_RESULT": 2.03
  },
  {
    "BIOSEQUENCE": "ACCLLYCGDVV [TUBA4A_Y319_R320C]",
    "ENDPOINT_RESULT": 1.09
  },
  {
    "BIOSEQUENCE": "GIYKDYYRYNF [PLA2G2D_Y85_S80G]",
    "ENDPOINT_RESULT": 7.91
  },
  {
    "BIOSEQUENCE": "QTEAEYRFIYM [PTPN11_Y511_Q510E]",
    "ENDPOINT_RESULT": 1.51
  },
  {
    "BIOSEQUENCE": "IKNFKYGIEEH [GJA1_Y137_K134N]",
    "ENDPOINT_RESULT": 0.682
  }
]

###

molecular target: Fyn (UniProt P06241); assay: phosphorylation enrichment, bacterial display (enrichment ratio); higher = better substrate or ligand; peptides without Tyr show the background
Sequence (P06241 whole entry, looked up): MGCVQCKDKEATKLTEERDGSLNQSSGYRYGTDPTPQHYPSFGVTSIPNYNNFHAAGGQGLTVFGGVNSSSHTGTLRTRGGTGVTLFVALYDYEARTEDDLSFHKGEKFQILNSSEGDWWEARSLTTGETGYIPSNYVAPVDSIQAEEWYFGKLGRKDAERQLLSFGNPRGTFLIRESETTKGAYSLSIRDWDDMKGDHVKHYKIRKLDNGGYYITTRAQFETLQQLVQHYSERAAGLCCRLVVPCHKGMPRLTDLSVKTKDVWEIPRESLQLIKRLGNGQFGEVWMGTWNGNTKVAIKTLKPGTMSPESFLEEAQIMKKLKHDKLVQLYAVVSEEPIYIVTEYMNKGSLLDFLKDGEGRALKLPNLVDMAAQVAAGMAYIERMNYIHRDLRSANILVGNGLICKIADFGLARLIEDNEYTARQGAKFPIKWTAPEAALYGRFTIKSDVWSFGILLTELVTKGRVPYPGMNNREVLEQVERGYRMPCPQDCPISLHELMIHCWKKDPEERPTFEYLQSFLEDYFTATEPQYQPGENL
PROPERTY: phosphorylation enrichment

[
  {
    "BIOSEQUENCE": "YCIDHYLGKEM [G6PD_Y202_R198C]",
    "ASSAY_TARGET": "Fyn (UniProt P06241)",
    "PROPERTY": "phosphorylation enrichment",
    "ENDPOINT_RESULT": 0.503
  },
  {
    "BIOSEQUENCE": "FLNSIYKCRDE [ROS1_Y2227_S2229C]",
    "ASSAY_TARGET": "Fyn (UniProt P06241)",
    "PROPERTY": "phosphorylation enrichment",
    "ENDPOINT_RESULT": 0.488
  },
  {
    "BIOSEQUENCE": "FCVDCYKNFVA [FHL1_Y213_YF]",
    "ASSAY_TARGET": "Fyn (UniProt P06241)",
    "PROPERTY": "phosphorylation enrichment",
    "ENDPOINT_RESULT": 0.562
  },
  {
    "BIOSEQUENCE": "ENRKFYKDLKE [PURA_Y156_M157K_YF]",
    "ASSAY_TARGET": "Fyn (UniProt P06241)",
    "PROPERTY": "phosphorylation enrichment",
    "ENDPOINT_RESULT": 0.418
  },
  {
    "BIOSEQUENCE": "MAFDRYAAICS [OR8H2_Y123_H120Y_YF]",
    "ASSAY_TARGET": "Fyn (UniProt P06241)",
    "PROPERTY": "phosphorylation enrichment",
    "ENDPOINT_RESULT": 0.479
  },
  {
    "BIOSEQUENCE": "NFRRGYHLQVL [CD200R1L_Y138_H135R]",
    "ASSAY_TARGET": "Fyn (UniProt P06241)",
    "PROPERTY": "phosphorylation enrichment",
    "ENDPOINT_RESULT": 0.416
  },
  {
    "BIOSEQUENCE": "QNTGDDFDLFG [PTPN11_Y62_Y62D_YF]",
    "ASSAY_TARGET": "Fyn (UniProt P06241)",
    "PROPERTY": "phosphorylation enrichment",
    "ENDPOINT_RESULT": 0.54
  },
  {
    "BIOSEQUENCE": "HKANEYFPVVI [ADAMTS18_Y764_L769I_YF]",
    "ASSAY_TARGET": "Fyn (UniProt P06241)",
    "PROPERTY": "phosphorylation enrichment",
    "ENDPOINT_RESULT": 0.594
  },
  {
    "BIOSEQUENCE": "YFRDGHMPRQY [GSS_Y270_Y270H]",
    "ASSAY_TARGET": "Fyn (UniProt P06241)",
    "PROPERTY": "phosphorylation enrichment",
    "ENDPOINT_RESULT": 0.443
  },
  {
    "BIOSEQUENCE": "ATATDYHTTSH [SLC4A1_Y46]",
    "ASSAY_TARGET": "Fyn (UniProt P06241)",
    "PROPERTY": "phosphorylation enrichment",
    "ENDPOINT_RESULT": 0.294
  },
  {
    "BIOSEQUENCE": "IIQRAYRGHLL [SCN1A_Y1926_R1928G]",
    "ASSAY_TARGET": "Fyn (UniProt P06241)",
    "PROPERTY": "phosphorylation enrichment",
    "ENDPOINT_RESULT": 0.429
  },
  {
    "BIOSEQUENCE": "YLELNYKEDEY [MME_Y502]",
    "ASSAY_TARGET": "Fyn (UniProt P06241)",
    "PROPERTY": "phosphorylation enrichment",
    "ENDPOINT_RESULT": 0.63
  },
  {
    "BIOSEQUENCE": "LQLLGYRPVYS [CHST6_Y358]",
    "ASSAY_TARGET": "Fyn (UniProt P06241)",
    "PROPERTY": "phosphorylation enrichment",
    "ENDPOINT_RESULT": 0.916
  },
  {
    "BIOSEQUENCE": "MCDKEYYSVHN [MET_Y1234_Y1230C]",
    "ASSAY_TARGET": "Fyn (UniProt P06241)",
    "PROPERTY": "phosphorylation enrichment",
    "ENDPOINT_RESULT": 0.684
  },
  {
    "BIOSEQUENCE": "VPLLEYYRDIF [CDAN1_Y712]",
    "ASSAY_TARGET": "Fyn (UniProt P06241)",
    "PROPERTY": "phosphorylation enrichment",
    "ENDPOINT_RESULT": 0.444
  },
  {
    "BIOSEQUENCE": "ETGNLYIAKVE [CNTN4_Y180]",
    "ASSAY_TARGET": "Fyn (UniProt P06241)",
    "PROPERTY": "phosphorylation enrichment",
    "ENDPOINT_RESULT": 0.448
  },
  {
    "BIOSEQUENCE": "ARSHIYTFSSC [MEFV_Y741_A744S]",
    "ASSAY_TARGET": "Fyn (UniProt P06241)",
    "PROPERTY": "phosphorylation enrichment",
    "ENDPOINT_RESULT": 1.3
  },
  {
    "BIOSEQUENCE": "QYKDKYLAKHN [CASK_Y712]",
    "ASSAY_TARGET": "Fyn (UniProt P06241)",
    "PROPERTY": "phosphorylation enrichment",
    "ENDPOINT_RESULT": 0.436
  },
  {
    "BIOSEQUENCE": "FSLPAFMDRRD [COX4I1_Y38_Y38F]",
    "ASSAY_TARGET": "Fyn (UniProt P06241)",
    "PROPERTY": "phosphorylation enrichment",
    "ENDPOINT_RESULT": 0.458
  },
  {
    "BIOSEQUENCE": "TIQIMYGCDVG [HLA-A_Y123]",
    "ASSAY_TARGET": "Fyn (UniProt P06241)",
    "PROPERTY": "phosphorylation enrichment",
    "ENDPOINT_RESULT": 0.438
  },
  {
    "BIOSEQUENCE": "DPFHVYIKNHV [KCNE3_Y95_R99H_YF]",
    "ASSAY_TARGET": "Fyn (UniProt P06241)",
    "PROPERTY": "phosphorylation enrichment",
    "ENDPOINT_RESULT": 0.382
  },
  {
    "BIOSEQUENCE": "IFETDYFRKGG [INSR_Y1189_YF]",
    "ASSAY_TARGET": "Fyn (UniProt P06241)",
    "PROPERTY": "phosphorylation enrichment",
    "ENDPOINT_RESULT": 0.5
  }
]
